TEST TARGET: EV-A71 2A^pro (Human enterovirus 71, UniProt Q66478)
Sequence (Q66478 863-1012 limits assumed): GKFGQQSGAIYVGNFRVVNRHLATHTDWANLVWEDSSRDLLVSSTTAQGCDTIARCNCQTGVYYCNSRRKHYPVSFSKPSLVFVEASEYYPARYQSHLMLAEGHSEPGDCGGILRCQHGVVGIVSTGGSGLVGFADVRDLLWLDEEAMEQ
REPORTED ENDPOINT: IC50

Incoming: Answer with reported IC50 of CC(C)C[C@H](NC(=O)OCc1ccccc1)C(=O)N[C@@H](C[C@@H]1CCNC1=O)C(O)S(=O)(=O)O (stereo partly shown) [GC376, reference compound]
Outgoing: > 50 µM

###

TEST TARGET: EV-A71 3C^pro (Human enterovirus 71)
Sequence (Q66478 1549-1731 limits assumed): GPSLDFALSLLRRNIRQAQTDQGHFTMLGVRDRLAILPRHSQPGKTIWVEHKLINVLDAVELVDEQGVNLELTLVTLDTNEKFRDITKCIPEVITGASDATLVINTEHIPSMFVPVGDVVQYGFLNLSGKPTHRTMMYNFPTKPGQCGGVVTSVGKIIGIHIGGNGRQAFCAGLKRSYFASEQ
REPORTED ENDPOINT: IC50

Incoming: Give me measured IC50, please, for this compound: CC(C)C[C@H](NC(=O)OCc1ccccc1)C(=O)N[C@@H](C[C@@H]1CCNC1=O)C(O)S(=O)(=O)O (stereo partly shown) [GC376, reference compound]
Outgoing: ≤ 0.16 µM
